Settings: 313.15 K; 101.33 kPa; Liquid
mass density reference
Respond numerically; units are kg/m3 and should not be typed.

Example cases with answers are listed next.
compound | recorded-value
CCCNCCC [dipropylamine] | 726.15
CCCCN [1-butanamine] | 719.17
CCCCN(CCCC)CCCC [tributylamine] | 763.11

Asked: # return recorded mass density for input CCCN [propan-1-amine]
Given back: 696.04

Asked: For the compound ClC(Cl)(Cl)Cl [tetrachloromethane] , give its reported mass density.
Given back: 1555.02

Asked: Dear colleague, please send me the reported mass density for CCCCNCCCC [dibutylamine] when you can.
Given back: 743.44

Asked: Give mass density for ClC(Cl)Cl [trichloromethane]
Given back: 1448.43

Asked: Look up mass density of CCCN(CCC)CCC [tripropylamine] and report it.
Given back: 740.41
